biological target: Human GLP-1 receptor stably expressing cells (hGLP-1R/CHO-K1 cells) (Homo sapiens, UniProt P43220); assay: Measurement of GLP-1 receptor agonist activity (cAMP assay); conditions: increase in cAMP concentration in hGLP-1R/CHO-K1 cells, 37° C. 1 hour
Sequence (P43220 24-463): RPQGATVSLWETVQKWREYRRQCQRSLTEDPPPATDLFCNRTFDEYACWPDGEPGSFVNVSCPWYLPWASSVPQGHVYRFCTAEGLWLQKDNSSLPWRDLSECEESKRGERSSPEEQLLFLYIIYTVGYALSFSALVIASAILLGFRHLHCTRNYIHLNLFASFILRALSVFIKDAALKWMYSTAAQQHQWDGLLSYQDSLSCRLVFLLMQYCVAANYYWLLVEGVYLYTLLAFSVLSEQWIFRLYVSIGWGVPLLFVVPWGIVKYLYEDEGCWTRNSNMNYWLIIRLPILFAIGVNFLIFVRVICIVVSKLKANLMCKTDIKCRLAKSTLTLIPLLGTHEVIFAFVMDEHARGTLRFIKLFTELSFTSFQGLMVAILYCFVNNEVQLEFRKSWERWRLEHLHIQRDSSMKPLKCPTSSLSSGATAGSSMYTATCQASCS
# EC50 annotations
Kindly answer with a numeric value in nM, unit omitted.

Check out these entries, answers already filled in.
COc1cc(Cl)ccc1COc1cc2c(cc1C(F)F)CCN(Cc1nc3ccc(C(=O)O)cc3n1C[C@@H]1CCO1)[C@H]2C [Compound I-006] :: 0.308
C[C@H]1c2nc(OCc3ccc(F)cc3Cl)c(C#N)cc2CCN1Cc1nc2c(Cl)cc(C(=O)O)cc2n1C[C@@H]1CCO1 [Compound I-182] :: 0.173

Problem: I have this compound here, C[C@H]1c2nc(OCc3ccc(Cl)c4ccoc34)c(C(F)(F)F)cc2CCN1Cc1nc2ccc(C(=O)O)cc2n1C[C@@H]1CCO1 [Compound I-014] , and I need its recorded EC50.
Solution: 0.171

Source of measurements: patent US20260097037A1
